Target: respiratory complex I (mitochondrial complex I) (Mus musculus, UniProt P03888+Q91WD5+Q9DC70)
Construct: gene Ndufs2; native complex in mouse liver mitochondrial lysate
Experiment: NADH oxidation (A340) in mouse liver mitochondrial lysate
Format: biochemical
measured_attribute: pIC50
Interpret pIC50 as the negative base-10 log of the concentration measured in mol/L.

Task item: # get_value(readout='pIC50', item= CN(C)C(=N)N=C(N)N [metformin] )
Reply: 1.57

* * *

Target: respiratory complex I (mitochondrial complex I) (Mus musculus, UniProt P03888+Q91WD5+Q9DC70)
Construct: gene Ndufs2; native complex in mouse liver mitochondrial lysate
Test: NADH oxidation (A340) in mouse liver mitochondrial lysate; succinate rescue of respiration in isolated mitochondria
Type: biochemical
measured_attribute: IC50
Number plus unit, in that order.

Task item: # get_value(readout='IC50', item= "COc1ccc(C(=O)C2CCN(C(=O)c3ccc(C(=O)NC4CCN(Cc5ccc(C#N)cc5)CC4)cn3)CC2)cc1" )
Reply: 0.082 µM
